Endpoint: MIC. System: Coriolus versicolor. Items follow.
Supply the numeric figure in mg/L, leaving out any unit text.

See these solved cases before continuing.
1) CCCCCCCCCCCCSC1c2c(O)cc(O)cc2OC(c2ccc(O)c(O)c2)C1O (centres unmarked) [C12]    1000
2) CCCCCCCCCCSC1c2c(O)cc(O)cc2OC(c2ccc(O)c(O)c2)C1O (centres unmarked) [C10]    200
3) CCCCCCSC1c2c(O)cc(O)cc2OC(c2ccc(O)c(O)c2)C1O (centres unmarked) [C6]    800
4) CCCCCCCCSC1c2c(O)cc(O)cc2OC(c2ccc(O)c(O)c2)C1O (centres unmarked) [C8]    250

API: the following record is the query input.
IN: Form entry - test system: Coriolus versicolor; read-out: MIC; compound: CCCCCCCCCCCCCCCCSC1c2c(O)cc(O)cc2OC(c2ccc(O)c(O)c2)C1O (centres unmarked) [C16]
OUT: 1000
